These data points were gathered from patent US8735622B2.

- Tested on: H3K4me3 and H3K9me3 levels in MCF7 cells
- experiment description: Quantitative immunostaining assay of H3K4me3 and H3K9me3 in MCF7 cells
- Assay type: cell-based, human
- condition info: Homo sapiens, 48 hours, immunostaining image quantification, read-out: EC50 for H3K4me3
assay endpoint: EC50 (µM)

>>> numeric_value("COC(=O)/C=C/C(=O)N(O)CCCCNCc1ccc(COC(=O)Nc2cccc3ccccc23)cc1")
6.7

###

- system under test: GST-JMJD2A(1-420) (Homo sapiens, UniProt O75164)
- Construct: Recombinant protein preparation of GASC1(1-420), JMJD2A (1-420) and LSD1 (full-length)
- Sequence (O75164 1-420): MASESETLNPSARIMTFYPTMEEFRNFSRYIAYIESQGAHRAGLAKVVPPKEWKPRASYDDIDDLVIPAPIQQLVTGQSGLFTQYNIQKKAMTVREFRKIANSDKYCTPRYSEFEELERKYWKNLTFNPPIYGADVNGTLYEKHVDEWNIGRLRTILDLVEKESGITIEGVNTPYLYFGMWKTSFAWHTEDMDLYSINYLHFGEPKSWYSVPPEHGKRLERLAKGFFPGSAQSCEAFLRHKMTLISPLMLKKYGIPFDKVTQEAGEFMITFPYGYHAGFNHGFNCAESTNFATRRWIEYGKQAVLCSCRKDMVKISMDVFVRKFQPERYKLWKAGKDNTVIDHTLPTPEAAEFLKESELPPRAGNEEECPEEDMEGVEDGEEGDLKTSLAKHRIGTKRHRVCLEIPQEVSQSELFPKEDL
- experiment description: Fluorescence polarization (FP) binding assay, JMJD2A
- condition info: 1 nM fluorophore, 2 h at room temperature, read-out: dissociation constant (Kd) to GST-JMJD2A(1-420)
assay endpoint: Kd (nM)

>>> numeric_value("NCc1ccc(CN(CCCCN(O)C(=O)/C=C/C(=O)O)C(=S)Nc2ccc(C3=C4C=CC(=O)C=C4Cc4cc(O)ccc43)c(C(=O)O)c2)cc1")
175
